Origin of measurements: the supplement of paper PMC10567573

B1: MYOZ1 (parent)
chain: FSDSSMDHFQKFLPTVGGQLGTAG

Variants of: B1
ASSAY: protein stability index of a GFP-peptide fusion (GPS, HEK-293T) (PSI 1-6); higher = more stable;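 note: lentivirally expressed fusions sorted by FACS into six bins by GFP to DsRed ratio, PSI derived from sequencing read proportions per bin multiplied by bin number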
CONDITIONS USED: c terminus: a fixed tail appended
Note to self: values exactly at 2 are condition met. So protein stability index at or above 2 is condition met, below is condition not met.

* S2G | condition met
* G24L | condition met
* G21T | condition met

Inquiry: Dear colleague, could you confirm whether G24I has protein stability index at or above 2?
Reply text: condition not met

Inquiry: Follow-up entry: D3I
Reply text: condition not met

Inquiry: And for Q19T ?
Reply text: condition met

Inquiry: Same again, this time with K11L
Reply text: condition not met

Inquiry: Could you do the same for L13Q , please?
Reply text: condition met

Inquiry: Another variant to check: T22M
Reply text: condition met
